# Test system: SF-539 CNS
# assay_text: NCI tumour cell line growth inhibition, 48 h
property: TGI (µM)
Value expressed in µM; do not type the unit.

Form: compound = `CN(C)CCOc1cccc(NC2=C(Cl)C(=O)C(Nc3cccc(OCCN(C)C)c3)=C(Cl)C2=O)c1` ; TGI = 2.98

Record summary for `CC(=O)O[C@H]1C(=O)[C@@]2(C)[C@H]([C@H](OC(=O)c3ccncc3)[C@]3(O)C[C@H](OC(=O)[C@H](O)[C@@H](NC(=O)c4ccccc4)c4ccccc4)C(C)=C1C3(C)C)[C@]1(OC(C)=O)CO[C@@H]1C[C@@H]2O` : reported TGI = 4.55

// sample `Cc1ccc2cccc(OC(=O)c3cc4c(cc3Cl)Sc3nccn3S4(=O)=O)c2n1` , its TGI was 17.2

The compound listed as O=C1c2ccc3ccccc3c2CCC1N1CCCCC1 (stereo not drawn) shows TGI equal to 28.8

For `Cc1cc2nc3c(C#N)c(-c4ccccc4)cc(Nc4cccc(C(F)(F)F)c4)n3c2cc1C` the compound record lists TGI as 13.6

Noted for `Cn1cc(-c2nc(-c3cn(C)c4ncccc34)cs2)c2cc(F)ccc21` : its TGI reads 5.28

`Cc1cc(Cl)ccc1Nc1nc(C(F)(F)F)ccc1C(=O)N/N=C/c1c(Cl)cccc1Cl` has a reported TGI of 4.07

* * *

# Tested on: SN12C renal
# assay_text: NCI tumour cell line growth inhibition, 48 h
Hi there, I'd appreciate the recorded TGI for every entry that follows.

So, `Clc1cccc(Cc2cn3cc(-c4ccccc4)nc3s2)c1` ? Its TGI was > 100 µM

Record `OCCCNC(=S)Nc1ccc(-c2nc3ccccc3s2)cc1` , field TGI: 54.8 µM

// CC1(c2nc3cc(Cl)c(Cl)cc3[nH]2)CCC(C(=O)O)C(C)(C)O1 (configuration not stated) : TGI value = > 100 µM

Entry `COc1ccc2oc(-c3ccc(Cl)cc3)c(N3CCN(C)CC3)c2c1` , TGI reported as 10.2 µM

The molecule listed as `C(=N/Nc1ccccn1)/c1cccnc1` shows TGI equal to > 100 µM

Data point: O=C1CC23CC(=O)CC2(C1)c1ccccc1C3=O (configuration not stated) ; TGI = > 100 µM

TGI reading for `Cc1ccccc1Nc1cn(CCOc2ccccc2)c(=O)n(CCOc2ccccc2)c1=O` : > 100 µM

// recorded TGI for `CCOCC[P+](c1ccccc1)(c1ccccc1)c1ccccc1` : > 100 µM

Form: molecule = `O=C(Cc1nc2ccccc2s1)NC12CC3CC(CC(C3)C1)C2` ; TGI = > 100 µM

// TGI lookup, molecule = `CCOC(=O)c1cc(Cl)ccc1OC(N)=O` , result: > 100 µM

TGI for `FC(F)(F)c1ccccc1C=NC12CC3CC(CC(C3)C1)C2` is > 100 µM

Given item `COC(=O)c1cc(/C=C2\Cc3cc4c(cc3C2=O)CCC4)cc2c1CCC2` , the value recorded as its TGI is > 100 µM

* * *

Kindly state TGI for each of the entries shown.
# System: UACC-257 melanoma
# assay_text: NCI tumour cell line growth inhibition, 48 h
Give the quantity in µM, number only.

The recorded TGI for `CC(=O)/C=C/c1ccc(N(C)Cc2ccc(C(C)(C)C)cc2)cc1` is 335

The recorded TGI for entry CCN(CC)CCCC(C)Nc1ccnc2cc(Cl)c(SCc3ccccc3)cc12 (centres undefined) equals 2.11

Form field TGI, entry `O=C(NC1CCN(Cc2ccccc2)CC1)c1ccccc1I` : 38

Record COC(C(=O)[C@@H](O)[C@@H](C)O)[C@@H]1Cc2cc3cc(O[C@H]4C[C@@H](O[C@H]5C[C@@H](O)[C@H](O)C(C)O5)[C@H](O)C(C)O4)c(C)c(O)c3c(O)c2C(=O)[C@H]1O[C@H]1C[C@@H](O[C@H]2C[C@@H](O[C@H]3C[C@@H](O)[C@@H](O)C(C)O3)[C@@H](O)C(C)O2)[C@H](O)C(C)O1 (some centres undefined) . Reported TGI: 2.04

The compound listed as `CCOC(=O)c1c2c(n3cccc(F)c13)C(=O)c1ncccc1C2=O` shows TGI equal to 6.37

Quick note, TGI for `C#Cc1ccc(-n2c(/C=C/c3ccc4ccccc4n3)nc3ncccc3c2=O)cc1` landed at 1.92

// sample `NNc1nc(-c2ccccn2)nc2sc3c(c12)CCCCCC3` , its TGI was 77.4

Looking up O=[N+]([O-])c1ccc(C2N3CCCCC3[C@@H]3c4[nH]c5ccccc5c4CCN23)cc1 (some centres undefined) , I found its TGI recorded as 41.2

So, `CC1(C)CC[C@]2(C(=O)O)CC[C@]3(C)C(=CC[C@@H]4[C@@]5(C)CC[C@@H]6OC(C)(C)OC[C@@]6(C)[C@@H]5CC[C@]43C)[C@H]2C1` ? Its TGI was 31.8

* * *

# System: SK-MEL-2 melanoma
# assay_text: NCI tumour cell line growth inhibition, 48 h
property: TGI (µM)
Value expressed in µM; do not type the unit.

Field TGI (entry `Cc1cccc2c(=O)c3c(sc12)c(NCCN)nc1ccccc13` ) reads 2.15

Entry `N=C(N)c1ccc(-c2ccc(-c3ccc(C(=N)N)cc3)o2)cc1` ; TGI = 59.2

* * *

# Test system: SF-268 CNS
# assay_text: NCI tumour cell line growth inhibition, 48 h
property: TGI

For record `C#CCOc1c(OC)cc(C(=O)/C(C)=C/c2cccc(N=[N+]=[N-])c2)cc1OC` the listed TGI is > 100 µM

`COc1cc2c(cc1C)NC(=O)/C2=C/c1c(C)nc2sc(C)cn12` yielded TGI of > 100 µM

Quick note, TGI for `Cc1cc(NC(=O)C(=O)Cc2nc3ccccc3s2)ccc1Cl` landed at > 100 µM

Field TGI (entry Cc1cccc(C(O)c2ccccn2)c1O (stereo unspecified) ) reads > 100 µM

Entry `Cc1ccc2nc(Cl)c(/C=N/N3C(=O)/C(=C/Cc4ccco4)N=C3c3ccccc3)cc2c1` ; TGI = 70.6 µM

Per the records, this compound ( `O=C(Nc1cc(Cl)cc(Cl)c1)c1ccc(NC2=C(Cl)C(=O)N(Cc3ccccc3)C2=O)cc1` ) has TGI equal to 7.46 µM

The compound COC(=O)/C(Cl)=C1/CC1COCc1ccccc1 (stereo unspecified) showed TGI equal to > 100 µM

Query `CCCCN1C(=O)C[C@H]2[C@@H]3CCc4cc(OCCN5CCCC5)ccc4[C@H]3CC[C@]2(C)C1=O` yields TGI of 28 µM

Just so you know, measured TGI for CC1(CC(=O)OC(C#C[Si](C)(C)C)Cc2ccccc2)OCCO1 (stereo unspecified) came out at > 100 µM

Noted for `O=C(Nc1ccc(Cl)cc1Cl)/C(Cl)=C1/Sc2ccccc2NC1=O` : its TGI reads > 100 µM

Field TGI (entry CCOC(=O)C(SCCO)C(C(=O)OCC)n1cc(C)c(=O)[nH]c1=O (stereo unspecified) ) reads > 100 µM

* * *

# System: NCI-H23 lung
# assay_text: NCI tumour cell line growth inhibition, 48 h; in the data active = GI50 below about 0.43 µM; inactive = the rest
Your answer must be one of the following: 1 for active, 0 for inactive

Prompt: Lab log entry: `OCCCNC(=S)Nc1ccc(-c2nc3ccccc3s2)cc1` — outcome as called in the assay?
Response: 0

Prompt: So what was the verdict on `O=C(Nc1cccc2ccccc12)c1cc2ccccc2cc1O` in this test?
Response: 0

Prompt: Just curious, what result did `N=c1c2c(=O)n3c(nc2nc2sc4ccc(Cl)cc4n12)-c1ccccc1Sc1ccccc1-3` get here?
Response: 0

Prompt: Assay outcome for `COc1ccc2oc(-c3ccc(Cl)cc3)c(N3CCN(C)CC3)c2c1` : what was it?
Response: 0

Prompt: For O=C1[C@H](c2ccccc2)C2c3ccccc3CCN12 (stereo partly drawn) , what call appears in the results of this test?
Response: 0

Prompt: For `COC(=O)/C(Br)=C/c1c[nH]c2ccc(Br)cc12` , what call appears in the results of this test?
Response: 0

Prompt: Per the assay record, what outcome was assigned to `Cc1ccc(S(=O)(=O)N2C/C(=C\c3cc(F)cc(F)c3)C(=O)/C(=C/c3cc(F)cc(F)c3)C2)cc1` ?
Response: 0

Prompt: Each compound tested received a call. Report the one for `CCC1=C[C@H]2CN(CCc3c([nH]c4ccccc34)[C@@](C(=O)OC)(c3cc4c(cc3OC)N(C)[C@H]3[C@@](O)(C(=O)OC)[C@H](OC(C)=O)[C@]5(CC)[C@@H]6C[C@@H]6CN6CC[C@]43[C@@H]65)C2)C1` .
Response: 1

Prompt: I would be grateful if you could indicate the recorded call for `CCOCC[P+](c1ccccc1)(c1ccccc1)c1ccccc1` .
Response: 0

Prompt: Dear colleague, could you share the recorded outcome for `Cn1cc(-c2nc(-c3cn(C)c4ncccc34)cs2)c2cc(F)ccc21` when you have a moment?
Response: 0

Prompt: Status in this test for `CC(=O)/C=C/c1ccc(N(C)Cc2ccc(C(C)(C)C)cc2)cc1` ?
Response: 0

Prompt: // param item: `Cc1cc(Cl)ccc1Nc1nc(C(F)(F)F)ccc1C(=O)N/N=C/c1ccc(F)cc1` ; yields the recorded call
Response: 0

Prompt: Hi, do you know how `COc1cccc(-c2cc(NCc3ccc4c(c3)OCO4)nc(N)n2)c1` came out in this test?
Response: 1
